system: IGROV1 ovarian; assay: NCI-60 one-dose screen, 48 h; details: 10 µM unless noted
This is part of a sample that, as a whole, favours compounds with a hit. Of some 83,000 tested, about 20% had one in any assay. Calls of active or inactive are those of the source. Rule for the calls: active = growth percent below 10; inactive = the rest.
Respond using exactly one of the listed classes: active, inactive

Reference set, count: 2
INSERT INTO assay_data (molecule, category) VALUES
  ('O=C1CCCC=CC[C@H]2C=C(Cl)C(=O)C2=CC[C@H](CCCCC(F)(F)F)OC(=O)CCCC=CC[C@H]2C=C(Cl)C(=O)C2=CC[C@H](CCCCC(F)(F)F)OC(=O)CCCC=CC[C@H]2C=C(Cl)C(=O)C2=CC[C@H](CCCCC(F)(F)F)O1', 'inactive'),
  ('C=C(C)[C@@H]1CC[C@]2(C)CC[C@]3(C)[C@H](CC[C@@H]4[C@@]5(C)CCCNC(C)(C)[C@@H]5CC[C@]43C)[C@@H]12', 'inactive');

Query :: # outcome recorded in this test, key = Nc1c2c(nc3ccc(Cl)cc13)CC(c1ccc(O)cc1)CC2=O (stereo unspecified)
Result :: inactive

Query :: // same read-out, input: `CC(C)/C=C/CC[C@](C)(O)[C@H]1CC[C@]2(C)[C@@H]1CC[C@@H]1[C@@]3(C)C/C(=C/c4cccc(C(F)(F)F)c4)C(=O)C(C)(C)[C@@H]3CC[C@]12C`
Result :: inactive

Query :: // same read-out, input: `COC(=O)[C@]12CC[C@@H](C)[C@H](C)[C@@H]1C1=CC[C@@H]3[C@@]4(C)CC(=O)[C@H](OC(=O)c5ccco5)[C@@]5(C)COC(=C45)C[C@@]3(C)[C@]1(C)CC2`
Result :: inactive

Query :: // same read-out, input: `Cn1cc(-c2nc(-c3c[nH]c4ncccc34)cs2)c2cc(Br)ccc21`
Result :: inactive

Query :: // same read-out, input: `CN(C)c1ccc(N=C2C=CC(=O)C=C2)cc1`
Result :: inactive

Query :: // same read-out, input: `O=C1/C(=C\C(Cl)=C/c2ccc([N+](=O)[O-])cc2)SC(=S)N1CCc1ccc(O)cc1`
Result :: active

Query :: // same read-out, input: `COc1cc2[nH]c(C(=O)c3cc(OC)c(OC)c(OC)c3)c(N)c2cc1C#CC1CC1`
Result :: inactive

Query :: // same read-out, input: `OCCNc1nc(Nc2ccc(Cl)c(Cl)c2)nc2ccccc12`
Result :: inactive

---

// growth lookup, one value per entry
system: SW-620 colon; experiment: NCI-60 one-dose screen, 48 h (100 = growth as untreated, 0 = no growth, -100 = all killed); conditions: 10 µM unless noted
This is part of a sample that, as a whole, favours compounds with a hit. Of some 83,000 tested, about 20% had one in any assay.
Report the value in % with no unit label.

Recorded results for 6 molecules are shown here.
INSERT INTO measurements (molecule, test_value) VALUES
  ('Cn1c(=O)c2c(ncn2CC(=O)Nc2ccc(S(N)(=O)=O)cc2)n(C)c1=O', 103),
  ('O=c1c(CNc2ccc(S(=O)(=O)Nc3ncccn3)cc2)coc2ccccc12', 98.4),
  ('Cc1ccncc1C(=O)O', 97.3),
  ('CC(C)=CCC/C(C)=C/CC/C(C)=C/CC/C(C)=C/CSC[C@H](NC(=O)CCCCCN1CCN(C)CC1)C(=O)NC1CCCCC1', -12.9),
  ('Cn1cc(-c2nc(-c3c[nH]c4ncccc34)cs2)c2ccccc21', 95.8),
  ('O=C(NO)c1ccc(Cn2c(=O)n(-c3ccccc3)c(=O)c3ccccc32)cc1', 0.142);

Query :: For the molecule shown here, `COc1cccc(-c2nn(-c3ccccc3)cc2-c2ccnc(NCCCNS(=O)(=O)c3ccc(C(F)(F)F)cc3)c2)c1` , give the reported growth.
Result :: 47.7

Query :: // same read-out, input: O=C1CCN2C(=O)Nc3ccccc3C2C1 (stereo not given)
Result :: 99.8

Query :: // same read-out, input: `O=C(Nc1ccc(/C=C2\SC(=O)N(Cc3ccc(OC(F)(F)F)cc3)C2=O)cc1)c1ccc(Cl)c([N+](=O)[O-])c1`
Result :: 2.11

Query :: // same read-out, input: `CCCCC[C@H]1C/C=C2/C(=O)C(Cl)=C[C@@H]2C/C=C\CCCC(=O)O[C@@H](CCCCC)C/C=C2/C(=O)C(Cl)=C[C@@H]2C/C=C\CCCC(=O)O1`
Result :: -41.6

Query :: // same read-out, input: NC(Cc1ccc(O)cc1)C(=O)N/N=C/c1ccccc1O (stereo not given)
Result :: 107

Query :: // same read-out, input: `C=C(C)[C@@H]1CC[C@]2(/C=N/Nc3ccncc3)CC[C@]3(C)[C@H](CC[C@@H]4[C@@]5(C)CCCNC(C)(C)[C@@H]5CC[C@]43C)[C@@H]12`
Result :: 41.4

Query :: // same read-out, input: `COc1ccc2c(c1)c(-c1nc(-c3c[nH]c4ncccc34)cs1)cn2CCCN1CCCCC1`
Result :: -43.3

Query :: // same read-out, input: `O=S(=O)(NCCNc1cc(-c2cn(-c3ccccc3)nc2-c2cccc(O)c2)ccn1)c1ccc(F)cc1`
Result :: 18.8

Query :: // same read-out, input: CC1(C)NC2=C(C(Nc3cccnc3)N1)C(c1ccc([N+](=O)[O-])cc1)C(C(=O)c1ccc(N=[N+]=[N-])cc1)O2 (stereo not given)
Result :: 104

Query :: // same read-out, input: `CCc1cccc(CC)c1NC(=O)c1sc2nc3c(cc2c1N)CCCC3`
Result :: 70.8

Query :: // same read-out, input: Nc1c2c(nc3ccc(Cl)cc13)CC(c1ccccc1)CC2=O (stereo not given)
Result :: 24.8

---

system: HCT-15 colon; experiment: NCI-60 one-dose screen, 48 h (100 = growth as untreated, 0 = no growth, -100 = all killed); conditions: 10 µM unless noted
Compounds without any hit were thinned out: in the full panel of roughly 83,000, 20% have a hit.
Would you please tag the item 1 (yes) when its growth is 90% or above, and 0 (no) when it is below?

INSERT INTO results (smiles_structure, category) VALUES
  ('CCN(CC)CCCCCNc1cc(OC(=O)c2ccccc2)cc2cccnc12', '0 (no)'),
  ('CC1(C)C(=O)/C(=C\c2cccnc2)C[C@]2(C)[C@H]3CC[C@@H]4[C@@H](C(=O)/C=C/c5ccncc5)CC[C@@]4(C)[C@]3(C)CC[C@@H]12', '0 (no)'),
  ('N=c1c(S(=O)(=O)c2ccccc2)cc2c(=O)n3ccccc3nc2n1C1CCCC1', '0 (no)'),
  ('C=C(C)[C@@H]1CC[C@]2(C(=O)O)CC[C@]3(C)[C@H](CC[C@@H]4[C@@]5(C)C/C(=C/c6cccc(I)c6)C(=O)C(C)(C)[C@@H]5CC[C@]43C)[C@@H]12', '0 (no)'),
  ('O=S(=O)(NCCNc1cc(-c2cn(-c3ccccc3)nc2-c2cccc(O)c2)ccn1)c1ccccc1', '0 (no)'),
  ('COc1ccc(C2(Cl)c3ccccc3N(c3ccccc3)c3ccccc32)cc1', '0 (no)');

Query :: Kindly determine if growth recorded for `Fc1ccc(Nc2nnc(-c3ccc(Cl)cc3)o2)cc1` is above or exactly 90%.
Result :: 1 (yes)

Query :: // same read-out, input: `OCC(CO)(CCl)CCl`
Result :: 1 (yes)

Query :: // same read-out, input: `Clc1ccc(Cn2cc(-c3nc4ccc(Br)nc4n3Cc3ccc(Cl)cc3)c3cccnc32)cc1`
Result :: 0 (no)

---

system: A498 renal; assay: NCI-60 one-dose screen, 48 h (100 = growth as untreated, 0 = no growth, -100 = all killed); details: 10 µM unless noted
Compounds without any hit were thinned out: in the full panel of roughly 83,000, 20% have a hit.
With a cut-off of 90%, any growth strictly below it is called condition met; any growth meeting it or above is called condition not met.

Reference set, count: 3
INSERT INTO assay_data (molecule, category) VALUES
  ('CC(=O)O[C@@H]1CCN2C(=O)N(C)c3ccccc3[C@@H]2C1', 'condition not met'),
  ('O=S(=O)(NCCNc1cc(-c2cn(-c3ccccc3)nc2-c2cccc(O)c2)ccn1)c1ccc(F)cc1', 'condition met'),
  ('COC(=O)C(N)CSC(c1ccccc1)(c1ccccc1)c1ccccc1 (stereo unspecified)', 'condition met');

Query :: Is 90% strictly greater than the molecule's reported growth? molecule: `COc1ccc(CCN2C(=O)C(C)(C)SC2=S)cc1OC`
Result :: condition not met

---

system: BT-549 breast; experiment: NCI-60 one-dose screen, 48 h; settings: 10 µM unless noted
About 83,000 compounds went through this panel and 20% of them were active in at least one assay; those are over-represented in the sample as a whole. Active and inactive are the calls of the source. How the source made its calls: active means growth percent below 10; inactive means the rest.
Respond using exactly one of the listed classes: active, inactive

Reference set, count: 5
INSERT INTO assay_data (molecule, study_system, category) VALUES
  ('CC1=NN(c2ccc(S(=O)(=O)O)cc2Cl)C(=O)C1', 'BT-549 breast', 'inactive'),
  ('COc1ccc(-c2nc(SCC(=O)Nc3ccc(C(C)=O)cc3)[nH]c(=O)c2C#N)cc1', 'BT-549 breast', 'inactive'),
  ('c1ccc(C2Cc3ccccc3C2=NC2CCCCC2)cc1 (stereo unspecified)', 'BT-549 breast', 'inactive'),
  ('C#CCn1c(C)cc(C)c(C#N)c1=O', 'BT-549 breast', 'inactive'),
  ('C=C1C(=O)O[C@H]2[C@H]1CC/C(Cn1cc(-c3ccc(F)cc3)nn1)=C\CC[C@@]1(C)O[C@@H]21', 'BT-549 breast', 'inactive');

Query :: # outcome recorded in this test, key = `CCSc1sc(-c2ccc(C)cc2)nc1[P+](c1ccccc1)(c1ccccc1)c1ccccc1`
Result :: active
